Data provenance is patent US12421279B2.

- Test system: HIV-1Bal.01
- conditions_used: read-out: HIV-1 IC50; HIV-1Bal.01 infection inhibition, Table 1
*1 amine or outer side, *2 acyl side, *3 side chain or, on linkers, in order; H or OH if unused. Where a SMILES comes first, the peptide text is derived from it. Bridges are numbered along the chain shown (N, C = ends). [ ]: non-standard residue; d: D form. X4 = O=C([C@@H]1C[C@H](n2cc(C3C4CC5CC(C4)CC3C5)nn2)CN1[*:1])[*:2]; X12 = O=C([C@@H]1C[C@H](n2cc(Cc3ccc(Cl)c(F)c3)nn2)CN1[*:1])[*:2]; X7 = Cc1cccc(Cc2cn([C@H]3C[C@@H](C(=O)[*:2])N([*:1])C3)nn2)c1; X8 = O=C([C@@H]1C[C@H](n2cc(Cc3ccc(Cl)cc3)nn2)CN1[*:1])[*:2]
assay_endpoint: pIC50
Kindly note that pIC50 refers to -log10 of the concentration in mol/L and answer with the value alone.

Observe how each entry below is paired with its result.
CC[C@H](C)[C@@H]1NC(=O)[C@H](CC(N)=O)NC(=O)[C@@H](N)CC(=O)NCCCC[C@@H](C(N)=O)NC(=O)[C@H](Cc2c[nH]c3ccccc23)NC(=O)[C@@H]2C[C@H](n3cc(C4C5CC6CC(C5)CC4C6)nn3)CN2C1=O (stereo partly shown) [compound 18] (H-DNI[X4]WK-NH2; lactam 1-6): 5.85
CC[C@H](C)[C@@H]1NC(=O)[C@H](CC(N)=O)NC(=O)[C@@H](N)CC(=O)NCCCC[C@@H](C(N)=O)NC(=O)[C@H](Cc2c[nH]c3ccccc23)NC(=O)[C@@H]2C[C@H](n3cc(Cc4ccc(Cl)c(F)c4)nn3)CN2C1=O [cPT 32] (H-DNI[X12]WK-NH2; lactam 1-6): 5.14
CC[C@H](C)[C@@H]1NC(=O)[C@H](CC(N)=O)NC(=O)[C@@H](N)CC(=O)NCCCC[C@@H](C(N)=O)NC(=O)[C@H](Cc2c[nH]c3ccccc23)NC(=O)[C@@H]2C[C@H](n3cc(Cc4ccc(Cl)cc4)nn3)CN2C1=O [compound 31] (H-DNI[X8]WK-NH2; lactam 1-6): 5.74

Noted for CC[C@H](C)[C@@H]1NC(=O)[C@H](CC(N)=O)NC(=O)[C@@H](N)CC(=O)NCCCC[C@@H](C(N)=O)NC(=O)[C@H](Cc2c[nH]c3ccccc23)NC(=O)[C@@H]2C[C@H](n3cc(Cc4cccc(C)c4)nn3)CN2C1=O [cPT 26] (H-DNI[X7]WK-NH2; lactam 1-6 (inferred); N-terminus and C-terminus assumed) : its pIC50 reads 6.66

----------
- Test system: HIV-1Bal.01
- conditions_used: read-out: HIV-1 IC50; HIV-1Bal.01 infection inhibition, Table 1
*1 amine or outer side, *2 acyl side, *3 side chain or, on linkers, in order; H or OH if unused. Where a SMILES comes first, the peptide text is derived from it. Bridges are numbered along the chain shown (N, C = ends). [ ]: non-standard residue; d: D form. X13 = O=C([C@@H]1C[C@H](n2cc(-c3cc4ccccc4cn3)nn2)CN1[*:1])[*:2]
assay_endpoint: IC50
For clarity, give the value followed by its unit.

Noted for CC[C@H](C)[C@@H]1NC(=O)[C@H](CC(N)=O)NC(=O)[C@@H](N)CC(=O)NCCCC[C@@H](C(N)=O)NC(=O)[C@H](Cc2c[nH]c3ccccc23)NC(=O)[C@@H]2C[C@H](n3cc(-c4cc5ccccc5cn4)nn3)CN2C1=O [compound 30] (H-DNI[X13]WK-NH2; lactam 1-6) : its IC50 reads 5 µM

----------
# key: entry, value: pIC50
- Test system: HIV-1Bal.01
- conditions_used: read-out: HIV-1 IC50; HIV-1Bal.01 infection inhibition, Table 1
*1 amine or outer side, *2 acyl side, *3 side chain or, on linkers, in order; H or OH if unused. Where a SMILES comes first, the peptide text is derived from it. Bridges are numbered along the chain shown (N, C = ends). [ ]: non-standard residue; d: D form. X16 = CC(C)c1ccc(-c2cn([C@H]3C[C@@H](C(=O)[*:2])N([*:1])C3)nn2)cc1; X11 = Cc1ccc(Cc2cn([C@H]3C[C@@H](C(=O)[*:2])N([*:1])C3)nn2)c(C)c1; X10 = Cc1ccc(Cc2cn([C@H]3C[C@@H](C(=O)[*:2])N([*:1])C3)nn2)cc1; X3 = Cc1ccccc1Cc1cn([C@H]2C[C@@H](C(=O)[*:2])N([*:1])C2)nn1; X14 = O=C([C@@H]1C[C@H](n2cc(Cc3ccccc3)nn2)CN1[*:1])[*:2]
Kindly note that pIC50 refers to -log10 of the concentration in mol/L and answer with the value alone.

Observe how each entry below is paired with its result.
CC[C@H](C)[C@@H]1NC(=O)[C@H](CC(N)=O)NC(=O)[C@@H](N)CC(=O)NCCCC[C@@H](C(N)=O)NC(=O)[C@H](Cc2c[nH]c3ccccc23)NC(=O)[C@@H]2C[C@H](n3cc(Cc4ccccc4C)nn3)CN2C1=O [cPT 25] (H-DNI[X3]WK-NH2; lactam 1-6 (inferred); N-terminus and C-terminus assumed): 5.29
CC[C@H](C)[C@@H]1NC(=O)[C@H](CC(N)=O)NC(=O)[C@@H](N)CC(=O)NCCCC[C@@H](C(N)=O)NC(=O)[C@H](Cc2c[nH]c3ccccc23)NC(=O)[C@@H]2C[C@H](n3cc(-c4ccc(C(C)C)cc4)nn3)CN2C1=O [compound 21] (H-DNI[X16]WK-NH2; lactam 1-6): 6.05
CC[C@H](C)[C@@H]1NC(=O)[C@H](CC(N)=O)NC(=O)[C@@H](N)CC(=O)NCCCC[C@@H](C(N)=O)NC(=O)[C@H](Cc2c[nH]c3ccccc23)NC(=O)[C@@H]2C[C@H](n3cc(Cc4ccc(C)cc4)nn3)CN2C1=O [cPT 24] (H-DNI[X10]WK-NH2; lactam 1-6 (inferred); N-terminus and C-terminus assumed): 6.74

Noted for CC[C@H](C)[C@@H]1NC(=O)[C@H](CC(N)=O)NC(=O)[C@@H](N)CC(=O)NCCCC[C@@H](C(N)=O)NC(=O)[C@H](Cc2c[nH]c3ccccc23)NC(=O)[C@@H]2C[C@H](n3cc(Cc4ccccc4)nn3)CN2C1=O [compound 19] (H-DNI[X14]WK-NH2; lactam 1-6) : its pIC50 reads 6.36

Noted for CC[C@H](C)[C@@H]1NC(=O)[C@H](CC(N)=O)NC(=O)[C@@H](N)CC(=O)NCCCC[C@@H](C(N)=O)NC(=O)[C@H](Cc2c[nH]c3ccccc23)NC(=O)[C@@H]2C[C@H](n3cc(Cc4ccc(C)cc4C)nn3)CN2C1=O [cPT 27] (H-DNI[X11]WK-NH2; lactam 1-6 (inferred); N-terminus and C-terminus assumed) : its pIC50 reads 6.52

----------
- System: HIV-1Bal.01
- conditions_used: read-out: HIV-1 IC50; HIV-1Bal.01 infection inhibition, Table 1
*1 amine or outer side, *2 acyl side, *3 side chain or, on linkers, in order; H or OH if unused. Where a SMILES comes first, the peptide text is derived from it. Bridges are numbered along the chain shown (N, C = ends). [ ]: non-standard residue; d: D form. X15 = CC(C)(C)c1ccc(-c2cn([C@H]3C[C@@H](C(=O)[*:2])N([*:1])C3)nn2)cc1; X9 = CCc1ccc(-c2cn([C@H]3C[C@@H](C(=O)[*:2])N([*:1])C3)nn2)cc1; X5 = O=C([C@@H]1C[C@H](n2cc(Cc3ccc(I)cc3)nn2)CN1[*:1])[*:2]
assay_endpoint: pIC50
Kindly note that pIC50 refers to -log10 of the concentration in mol/L and answer with the value alone.

Observe how each entry below is paired with its result.
CC[C@H](C)[C@@H]1NC(=O)[C@H](CC(N)=O)NC(=O)[C@@H](N)CC(=O)NCCCC[C@@H](C(N)=O)NC(=O)[C@H](Cc2c[nH]c3ccccc23)NC(=O)[C@@H]2C[C@H](n3cc(-c4ccc(C(C)(C)C)cc4)nn3)CN2C1=O [compound 22] (H-DNI[X15]WK-NH2; lactam 1-6): 6.46
CCc1ccc(-c2cn([C@H]3C[C@H]4C(=O)N[C@@H](Cc5c[nH]c6ccccc56)C(=O)N[C@H](C(N)=O)CCCCNC(=O)C[C@H](N)C(=O)N[C@@H](CC(N)=O)C(=O)N[C@@H]([C@@H](C)CC)C(=O)N4C3)nn2)cc1 [compound 20] (H-DNI[X9]WK-NH2; lactam 1-6): 5.92

Now for the molecule whose pIC50 we want.
Noted for CC[C@H](C)[C@@H]1NC(=O)[C@H](CC(N)=O)NC(=O)[C@@H](N)CC(=O)NCCCC[C@@H](C(N)=O)NC(=O)[C@H](Cc2c[nH]c3ccccc23)NC(=O)[C@@H]2C[C@H](n3cc(Cc4ccc(I)cc4)nn3)CN2C1=O [cPT 33] (H-DNI[X5]WK-NH2; lactam 1-6) : its pIC50 reads 5.22
